Assay Name: qHTS RealTime-Glo MT Cell Viability Assay in HEK293 cells - 24 hour (AID 1224886); also: nearly all actives have a fitted effect of over 50% in size
Condition Details: RealTime-Glo luminescence; series mostly up to 76.8 µM
Results filed as inconclusive are left out. Active and inactive are the calls of the source. Calls follow the shape of the dose curve; as a rule, active = well fitted cell-killing curve with a large enough effect in the repeat runs; inconclusive = weak or mixed curves, or effect the other way; inactive = flat fitted curve, though single readings scatter.
Answer with one of the outcomes active, inactive

Check out these entries, answers already filled in.
Compound	Category Label
C[C@@H](O)[C@H]1C(=O)N2C(C(=O)O)=C([C@H]3CCCO3)S[C@H]12	inactive
CC(=O)c1ccc([N+](=O)[O-])cc1	inactive
Cc1cscn1	inactive

Q: Which outcome was assigned to c1cc(N(CC2CO2)CC2CO2)ccc1Cc1ccc(N(CC2CO2)CC2CO2)cc1 (stereo unspecified) in this test?
Ans: active

Q: Similarly, Cc1cccc(O)c1N ?
Ans: inactive

Q: Similarly, O=C(Nc1cccc2c(=O)cc(-c3nn[nH]n3)oc12)c1ccc(OCCCCc2ccccc2)cc1 ?
Ans: inactive

Q: Similarly, C1C[C@@H]2[C@H]3CC[C@H](C3)[C@@H]2C1 ?
Ans: inactive

Q: Similarly, O=C(O)c1cccc(-c2noc(-c3ccccc3F)n2)c1 ?
Ans: inactive

Q: Similarly, Cc1[nH]cnc1CN1CCc2c(c3ccccc3n2C)C1=O ?
Ans: inactive

Q: Similarly, COC(=O)C1=C(C)NC(C)=C(C(=O)O[C@@H]2CCCN(Cc3ccccc3)C2)[C@@H]1c1cccc([N+](=O)[O-])c1 ?
Ans: inactive

Q: Similarly, N#[N+]c1ccc2c(S(=O)(=O)[O-])cccc2c1O ?
Ans: inactive

Q: Similarly, CCCCCCCCCCCCCCN(CCO)CCO ?
Ans: active

Q: Similarly, CCCC(=O)C(=O)O ?
Ans: inactive

Q: Similarly, C/C=C\C/C=C/CCCCCCCCOC(C)=O ?
Ans: inactive

----------
Assay Name: A CellTox Green Cytotoxicity Assay to monitor cytotoxicity in HepG2 cells - 40 hour (AID 1224879); also: nearly all actives have a fitted effect of over 40% in size
Condition Details: CellTox Green fluorescence; series mostly up to 76.8 µM
Records with an inconclusive call do not appear. Activity calls are given as the source filed them. The call rests on the fitted dose curve; in most records, active means well fitted activation curve with a large enough effect in the repeat runs; inconclusive means weak or mixed curves; inactive means flat fitted curve, though single readings scatter.
Answer with one of the outcomes active, inactive

Compound	Category Label
CC(CCC(=O)O)C(=O)O (configuration not stated)	inactive
CCCCCC[C@@H](O)C/C=C\CCCCCCCC(=O)O	inactive
Cc1ccc(OC(=O)c2ccccc2O)cc1	inactive
COc1ccccc1N1CCN(CCCCNC(=O)c2ccc(-c3ccc(C(C)=O)cc3)cc2)CC1	active
CC(=O)Nc1cc(S(=O)(=O)O)cc2cc(S(=O)(=O)O)c(N=Nc3ccccc3)c(O)c12	inactive

Q: Which outcome was assigned to CO[C@]1(NC(=O)CSC(F)F)C(=O)N2C(C(=O)O)=C(CSc3nnnn3CCO)CO[C@H]21 in this test?
Ans: inactive

Q: Similarly, C[C@@H]1CN(CCCn2c3ccccc3c3ccccc32)C[C@H](C)N1 ?
Ans: active

Q: Similarly, CN1CCCC(CC2c3ccccc3Sc3ccccc32)C1 (configuration not stated) ?
Ans: active

Q: Similarly, c1ccc(C[n+]2cccc3ccccc32)cc1 ?
Ans: inactive

Q: Similarly, N#CCc1ccc(Cl)cc1Cl ?
Ans: inactive

Q: Similarly, CC1=C(CC=O)C(C)(C)CCC1 ?
Ans: inactive

Q: Similarly, C=CCc1ccccc1OCC(O)CNC(C)C (configuration not stated) ?
Ans: inactive

----------
Assay Name: qHTS assay to identify small molecule agonists of the estrogen related receptor (ERR) signaling pathway from Tox21 library (AID 1224849); also: % is scaled to controls: 0 for no effect and ±100 for the full control effect; nearly all actives have a fitted effect of over 15% in size
Condition Details: ERR reporter cell line, ONE-Glo luciferase, 18 h; at 92.4 µM (top of the series) unless noted
Active and inactive are the calls of the source. The call rests on the fitted dose curve.
Experimental Endpoint: activity change, positive = activation

Example entries begin here.
Molecule	activity change, positive = activation
CC(=O)OCC(=O)NCCCOc1cccc(CN2CCCCC2)c1	4.2% [at 42.5 µM] (inactive)
CN1C(=O)N(c2ccccc2Br)Cc2cnc(Nc3ccc4c(c3)OCC(CO)O4)nc21 (stereo not given)	-69.6% (inactive)
C/C=C\C/C=C/CCCCCCCCOC(C)=O	-15% (inactive)

Q: Entry C=Cc1ccc(S(=O)(=O)O)cc1 : reported activity change, positive = activation = ?
Ans: 6.91% (inactive)

Q: Similarly, CC(=O)OCCN(CCOC(C)=O)c1ccc(N=Nc2ccc([N+](=O)[O-])cc2C#N)cc1 ?
Ans: -46.9% (inactive)

Q: Similarly, FC(F)(F)c1ccccc1Cl ?
Ans: -2.05% (inactive)

Q: Similarly, CC1(C)[C@@H](OC(=O)CCC(=O)O)CC[C@]2(C)[C@H]3C(=O)C=C4[C@@H]5C[C@@](C)(C(=O)O)CC[C@]5(C)CC[C@@]4(C)[C@]3(C)CC[C@@H]12 ?
Ans: 1.84% [at 42.5 µM] (inactive)

Q: Similarly, N#CCc1ccc(Cl)cc1Cl ?
Ans: 0.109% (inactive)

Q: Similarly, CCOc1cccc(-n2cc(C(=O)N3CCN(c4cc(C(=O)O)c5ccccc5c4)CC3)nc2-c2ccc(C)cc2)c1 ?
Ans: -37.7% (inactive)

Q: Similarly, c1cc(N(CC2CO2)CC2CO2)ccc1Cc1ccc(N(CC2CO2)CC2CO2)cc1 (stereo not given) ?
Ans: -66.1% (inactive)

----------
Assay Name: Caspase-3/7 induction in HepG2 cells by small molecules, qHTS cell viability counter screen (AID 1346981); also: nearly all actives have a fitted effect of over 30% in size
Condition Details: CellTiter-Fluor fluorescence, 17 h; series mostly up to 92.4 µM
Results filed as inconclusive are left out. Activity calls are given as the source filed them. Calls follow the shape of the dose curve; as a rule, active = well fitted cell-killing curve with a large enough effect in the repeat runs; inconclusive = weak or mixed curves, or effect the other way; inactive = flat fitted curve, though single readings scatter.
Answer with one of the outcomes active, inactive

Check out these entries, answers already filled in.
Compound	Category Label
CC(=O)Oc1ccc([N+](=O)[O-])cc1CCl	active
C[C@@]12CCC[C@H]1[C@@H]1CC[C@H]3C[C@@H](O)CC[C@]3(C)[C@H]1CC2	inactive
O=C(O)c1cccc(-c2noc(-c3ccccc3F)n2)c1	inactive
COc1ccc(OC(=O)N(CC(=O)O)Cc2ccc(OCCc3nc(-c4ccccc4)oc3C)cc2)cc1	inactive
CN1C(=O)OC(C)(C)C1=O	inactive

Q: Which outcome was assigned to O=C(/C=C/c1ccc(O)c(O)c1)O[C@@H]1C[C@@](OC(=O)/C=C/c2ccc(O)c(O)c2)(C(=O)O)C[C@@H](O)[C@@H]1O in this test?
Ans: inactive

Q: Similarly, O=C(OCC(O)CO)c1ccccc1Nc1ccnc2cc(Cl)ccc12 (stereo not drawn) ?
Ans: inactive

Q: Similarly, CC(=O)OCC[N+](C)(C)C ?
Ans: inactive

Q: Similarly, COc1ccccc1N1CCN(CCCCNC(=O)c2ccc(-c3ccc(C(C)=O)cc3)cc2)CC1 ?
Ans: inactive

Q: Similarly, C=C1C[C@@]23CC[C@H]4[C@@](C)(CCC[C@@]4(C)C(=O)O[C@@H]4O[C@H](CO)[C@@H](O)[C@H](O)[C@H]4O)[C@@H]2CC[C@]1(O[C@@H]1O[C@H](CO)[C@@H](O)[C@H](O[C@@H]2O[C@H](CO)[C@@H](O)[C@H](O)[C@H]2O)[C@H]1O[C@@H]1O[C@H](CO)[C@@H](O)[C@H](O)[C@H]1O)C3 ?
Ans: inactive

Q: Similarly, c1ccc2sc(SN(C3CCCCC3)C3CCCCC3)nc2c1 ?
Ans: inactive

Q: Similarly, CCOC(=O)c1ccc(O)c(O)c1 ?
Ans: inactive

Q: Similarly, O=c1cc(-c2ccccc2)oc2cc(O)cc(O)c12 ?
Ans: active

Q: Similarly, CCCCOc1ccc(OCCCN2CCOCC2)cc1 ?
Ans: inactive

Q: Similarly, CC(C)=CCC/C(C)=C/CC/C(C)=C/CCC(=O)OC/C=C(\C)CCC=C(C)C ?
Ans: inactive

----------
Assay Name: qHTS assay to identify small molecule agonists of H2AX (AID 1224845); also: % is scaled to controls: 0 for no effect and ±100 for the full control effect
Condition Details: CHO-K1 phospho-H2AX Ser139 HTRF, 3 h; series mostly up to 154 µM
Records with an inconclusive call do not appear. Activity calls are given as the source filed them. Calls follow the shape of the dose curve; as a rule, active = well fitted activation curve with a large enough effect in the signal ratio in the repeat runs (not every such curve was filed as active); inconclusive = weak or mixed curves; inactive = flat fitted curve, though single readings scatter; the % refers to the signal ratio.
Experimental Endpoint: Potency

Compound	Potency
CC(C)(C)CC(=O)OCC(=O)[C@@]1(O)CC[C@H]2[C@@H]3CCC4=CC(=O)C=C[C@]4(C)[C@H]3[C@@H](O)C[C@@]21C	inactive
C[C@@H](O)[C@H]1C(=O)N2C(C(=O)O)=C([C@H]3CCCO3)S[C@H]12	inactive
O=C1NCCN1CCO	inactive
C/C=C\C/C=C/CCCCCCCCOC(C)=O	inactive
Nc1nnc(-c2ccc([N+](=O)[O-])o2)o1	inactive

// moving on: another record for Potency
Q: Entry C=COCC(C)C : reported Potency = ?
Ans: inactive

----------
Assay Name: qHTS RealTime-Glo MT Cell Viability Assay in HEK293 cells - 0 hour (AID 1224880); also: top concentration of the series differs between compounds; % is scaled to controls: 0 for no effect and ±100 for the full control effect; nearly all actives have a fitted effect of over 45% in size
Condition Details: RealTime-Glo luminescence; series mostly up to 76.8 µM
Records with an inconclusive call do not appear. Active and inactive are the calls of the source. Calls follow the shape of the dose curve; as a rule, active = well fitted cell-killing curve with a large enough effect in the repeat runs; inconclusive = weak or mixed curves, or effect the other way; inactive = flat fitted curve, though single readings scatter.
Answer with one of the outcomes true = active, false = inactive

Q: Which outcome was assigned to Clc1ccc(Nc2nnc(Cc3ccncc3)c3ccccc23)cc1 in this test?
Ans: false

Q: Similarly, CC1CC(OC(=O)C(O)c2ccccc2)CC(C)(C)N1C (stereo unspecified) ?
Ans: false

Q: Similarly, CN1C(C(=O)Nc2ccccn2)=C(O)c2sccc2S1(=O)=O ?
Ans: false

Q: Similarly, C[C@@]12CCC[C@H]1[C@@H]1CC[C@H]3C[C@@H](O)CC[C@]3(C)[C@H]1CC2 ?
Ans: false

Q: Similarly, Oc1cccc(Nc2ccccc2)c1 ?
Ans: false
